# Tested on: OVCAR-5
# EXPERIMENT_DESCRIPTION: NCI tumour cell line growth inhibition, 48 h
Active and inactive are the calls of the source. Cut-off read from the data, not from the text of the source: active = GI50 up to about 1.1 µM and inactive = higher.
Collected GI50 values appear next to each entry.

Examples with their reported GI50 follow.
>>> recorded_result("O=Nc1ccc(O)c2ncccc12")
"15.7 µM (inactive)"
>>> recorded_result("COc1cc2c(cc1OCc1ccccc1)NC(=O)[C@@H]1C[C@@H](O)CN1C2=O")
"> 100 µM (inactive)"
>>> recorded_result("O=C(Nn1c(-c2ccccc2)nc2ccccc2c1=O)c1ccc([N+](=O)[O-])cc1")
"> 100 µM (inactive)"
>>> recorded_result("CCOC(=O)C(NC(=O)c1ccccc1)(N1CCOCC1)C(F)(F)F (stereo not given)")
"> 100 µM (inactive)"
>>> recorded_result("CCCCC1(C(NC(=O)c2ccccc2Cl)c2ccncc2)C(=O)N(c2ccccc2)N(c2ccccc2)C1=O (stereo not given)")
"> 100 µM (inactive)"
>>> recorded_result("COC(=O)C[S+]([O-])c1ccccc1 (stereo not given)")
"68.4 µM (inactive)"
>>> recorded_result("O=C(C#Cc1cnc(O)nc1O)c1ccccc1")
"18.9 µM (inactive)"
>>> recorded_result("Oc1ccccc1-n1nc2ccc3nonc3c2n1")
"> 100 µM (inactive)"
>>> recorded_result("O=c1c2nc(-c3ccccc3)oc2n(-c2ccccc2)c(=O)n1-c1ccccc1")
"> 46.5 µM (inactive)"

Here is the next item to consider.
Please give the documented GI50 of `Cc1ccc(S(=O)(=O)N2CCN(S(=O)(=O)c3ccc(C)cc3)CCN(S(=O)(=O)c3ccc(C)cc3)Cc3cc(Br)c(Br)cc3CN(S(=O)(=O)c3ccc(C)cc3)CC2)cc1` 92.3 µM (inactive)

Reference for the values: ChEMBL document CHEMBL1201862
